Numbers sourced from patent US11066396B2.

- Study System: HDAC1 (Homo sapiens (Human))
- Sequence (Q13547 whole entry): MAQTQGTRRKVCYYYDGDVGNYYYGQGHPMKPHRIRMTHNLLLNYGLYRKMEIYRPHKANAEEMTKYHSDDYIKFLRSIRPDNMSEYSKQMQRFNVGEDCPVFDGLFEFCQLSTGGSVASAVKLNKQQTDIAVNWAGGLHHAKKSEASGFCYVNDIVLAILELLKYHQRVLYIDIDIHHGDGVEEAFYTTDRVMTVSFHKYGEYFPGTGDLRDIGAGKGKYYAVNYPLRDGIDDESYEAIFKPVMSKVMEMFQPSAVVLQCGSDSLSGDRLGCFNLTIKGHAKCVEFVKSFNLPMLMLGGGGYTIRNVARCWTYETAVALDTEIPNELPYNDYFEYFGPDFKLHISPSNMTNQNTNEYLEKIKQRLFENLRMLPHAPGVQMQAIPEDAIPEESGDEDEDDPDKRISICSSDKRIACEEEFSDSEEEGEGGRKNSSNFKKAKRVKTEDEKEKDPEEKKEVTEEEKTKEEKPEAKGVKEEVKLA
Consider the following molecules and their measured IC50 readings.
Measured Property: IC50 (µM)

>>> observed_value("O=C(NC(Cc1ccc(-c2noc(C(F)(F)F)n2)cn1)c1cccc(C(F)(F)F)c1)C1CCS(=O)(=O)CC1 (racemic)")
0.67
>>> observed_value("Cc1ccc(C(=O)N(Cc2ccc(-c3noc(C(F)(F)F)n3)cn2)c2cccc(F)c2)nn1")
0.26
>>> observed_value("FC(COc1cc(-c2noc(C(F)(F)F)n2)ccn1)CN1CCOCC1 (racemic)")
5.1
>>> observed_value("CC(C)(C)OC(=O)C1COCC(=O)N1c1ccc(-c2noc(C(F)(F)F)n2)c(F)c1 (centres unmarked)")
0.94
>>> observed_value("FC(F)(F)c1nc(-c2ccc(CNc3cccnc3)cc2)no1")
1.7
>>> observed_value("Fc1cc(COc2nncc3ccccc23)ccc1-c1noc(C(F)(F)F)n1")
4.3
>>> observed_value("O=C1COC[C@@H](CNCc2ccc(-c3noc(C(F)(F)F)n3)cn2)N1")
2.8
>>> observed_value("O=C1CC[C@@H](CN2CCOCC2)N1c1ccc(-c2noc(C(F)(F)F)n2)c(F)c1")
15
>>> observed_value("FC(F)(F)c1nc(-c2ccc(CNc3ccc4nccn4c3)nc2)no1")
0.21
>>> observed_value("Cc1ncc(OCc2ccc(-c3noc(C(F)(F)F)n3)c(F)c2)cn1")
4
>>> observed_value("CCNC(=O)NC(Cc1ccc(-c2noc(C(F)(F)F)n2)cn1)c1cccc(C(F)(F)F)c1 (centres unmarked)")
0.34
>>> observed_value("Cc1nnc(CC(=O)N(Cc2ccc(-c3noc(C(F)(F)F)n3)cc2)c2cccc(C(F)(F)F)c2)n1C")
0.86
>>> observed_value("CNC(=O)c1ccccc1NCc1ccc(-c2noc(C(F)(F)F)n2)cn1")
0.35
>>> observed_value("FC(F)(F)c1nc(-c2ccnc(OCc3cc4n(n3)CCCO4)c2)no1")
1.2
>>> observed_value("O=C1NCCc2c(OCc3ccc(-c4noc(C(F)(F)F)n4)c(F)c3)cccc21")
6.9
>>> observed_value("COc1ccc2cc(OCc3ccc(-c4noc(C(F)(F)F)n4)c(F)c3)nnc2c1")
0.86
>>> observed_value("O=C(NC(Cc1ccc(-c2noc(C(F)(F)F)n2)cn1)c1cccc(C(F)(F)F)c1)C1CCOCC1 (racemic)")
0.63

* * *

Below, each entry is listed with its recorded IC50.
- Study System: HDAC8 (Homo sapiens (Human))
- Sequence (Q9BY41 whole entry): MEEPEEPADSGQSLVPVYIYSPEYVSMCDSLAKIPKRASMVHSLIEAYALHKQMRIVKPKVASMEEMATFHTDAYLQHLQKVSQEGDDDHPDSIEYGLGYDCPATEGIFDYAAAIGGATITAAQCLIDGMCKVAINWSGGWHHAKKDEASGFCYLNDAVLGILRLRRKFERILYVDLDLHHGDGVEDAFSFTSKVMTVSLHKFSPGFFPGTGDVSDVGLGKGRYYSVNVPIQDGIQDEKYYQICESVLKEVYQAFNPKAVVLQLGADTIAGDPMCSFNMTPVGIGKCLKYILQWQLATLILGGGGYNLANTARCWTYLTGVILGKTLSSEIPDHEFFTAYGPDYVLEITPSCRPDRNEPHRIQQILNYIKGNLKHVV
Measured Property: IC50 (µM)

>>> observed_value("O=C1Nc2ccccc2CC1NCc1ccc(-c2noc(C(F)(F)F)n2)cn1 (racemic)")
2.6
>>> observed_value("Cc1cccc(N2CCC(NCc3ccc(-c4noc(C(F)(F)F)n4)cc3)CC2)c1")
1.4
>>> observed_value("O=C([C@@H]1CCC(=O)N1c1cc(F)c(-c2noc(C(F)(F)F)n2)cc1F)N1CCC1")
26
>>> observed_value("O=C1CCc2ccc(F)cc2N1Cc1ccc(-c2noc(C(F)(F)F)n2)cc1")
1.8
>>> observed_value("C[Si]1(C)CCC(NCc2ccc(-c3noc(C(F)(F)F)n3)cn2)CC1")
4.2
>>> observed_value("FC(F)(F)c1nc(-c2ccc(CNC3CCc4ncccc4C3)cc2)no1 (racemic)")
0.68
>>> observed_value("Cc1nc2ccc(F)cc2n1Cc1ccc(-c2noc(C(F)(F)F)n2)cn1")
5.6
>>> observed_value("CN(C)c1cccc(COc2cc(-c3noc(C(F)(F)F)n3)ccn2)n1")
17
